# TESTED_ON: BSEP (Homo sapiens)
# Sequence (O95342 whole entry): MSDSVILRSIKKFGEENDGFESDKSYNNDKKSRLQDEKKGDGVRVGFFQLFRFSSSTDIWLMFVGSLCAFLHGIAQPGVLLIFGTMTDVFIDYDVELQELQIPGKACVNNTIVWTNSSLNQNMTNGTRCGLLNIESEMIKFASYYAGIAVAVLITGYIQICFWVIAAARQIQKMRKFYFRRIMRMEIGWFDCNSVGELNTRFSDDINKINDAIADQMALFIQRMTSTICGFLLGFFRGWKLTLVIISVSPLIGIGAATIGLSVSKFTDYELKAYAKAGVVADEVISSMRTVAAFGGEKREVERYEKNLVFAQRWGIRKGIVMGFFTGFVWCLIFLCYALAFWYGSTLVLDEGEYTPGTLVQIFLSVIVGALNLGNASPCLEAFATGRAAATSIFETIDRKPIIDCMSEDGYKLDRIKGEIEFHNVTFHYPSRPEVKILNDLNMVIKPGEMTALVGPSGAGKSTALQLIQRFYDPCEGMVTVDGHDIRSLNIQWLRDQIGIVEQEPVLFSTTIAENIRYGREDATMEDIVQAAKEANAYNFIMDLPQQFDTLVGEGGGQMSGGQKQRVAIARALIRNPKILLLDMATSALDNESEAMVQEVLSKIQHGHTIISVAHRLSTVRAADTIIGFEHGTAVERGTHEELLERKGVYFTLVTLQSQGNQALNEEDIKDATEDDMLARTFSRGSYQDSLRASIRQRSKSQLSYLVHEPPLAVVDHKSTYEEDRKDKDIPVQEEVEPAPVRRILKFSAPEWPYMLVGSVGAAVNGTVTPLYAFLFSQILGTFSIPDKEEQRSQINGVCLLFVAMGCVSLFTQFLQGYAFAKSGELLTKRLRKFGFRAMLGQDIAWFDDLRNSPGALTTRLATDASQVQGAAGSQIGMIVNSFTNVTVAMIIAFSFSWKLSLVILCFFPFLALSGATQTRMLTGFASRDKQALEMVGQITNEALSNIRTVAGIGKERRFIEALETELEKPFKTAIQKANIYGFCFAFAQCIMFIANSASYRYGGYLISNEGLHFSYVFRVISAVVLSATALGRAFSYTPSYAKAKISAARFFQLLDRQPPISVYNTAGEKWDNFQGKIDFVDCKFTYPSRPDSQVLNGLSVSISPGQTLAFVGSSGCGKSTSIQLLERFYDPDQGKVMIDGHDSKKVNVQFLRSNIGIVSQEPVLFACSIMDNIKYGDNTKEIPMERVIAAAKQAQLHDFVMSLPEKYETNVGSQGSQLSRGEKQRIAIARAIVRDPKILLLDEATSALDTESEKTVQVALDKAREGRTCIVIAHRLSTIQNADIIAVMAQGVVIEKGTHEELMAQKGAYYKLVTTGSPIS
# RUN_DESCRIPTION: IC50 for inhibition of BSEP activity in human hepatocytes
# Assay type: cell-based
pIC50: −log10 of the molar value.
REPORTED_PROPERTY: pIC50

Any idea what pIC50 came out for Cc1c(C)c2c(c(C)c1O)CCC(C)(COc1ccc(CC3SC(=O)NC3=O)cc1)O2 (stereo not shown) on BSEP (Homo sapiens)?
5.00 to 6.00

====

# TESTED_ON: BSEP (Rattus norvegicus)
# Sequence (O70127 whole entry): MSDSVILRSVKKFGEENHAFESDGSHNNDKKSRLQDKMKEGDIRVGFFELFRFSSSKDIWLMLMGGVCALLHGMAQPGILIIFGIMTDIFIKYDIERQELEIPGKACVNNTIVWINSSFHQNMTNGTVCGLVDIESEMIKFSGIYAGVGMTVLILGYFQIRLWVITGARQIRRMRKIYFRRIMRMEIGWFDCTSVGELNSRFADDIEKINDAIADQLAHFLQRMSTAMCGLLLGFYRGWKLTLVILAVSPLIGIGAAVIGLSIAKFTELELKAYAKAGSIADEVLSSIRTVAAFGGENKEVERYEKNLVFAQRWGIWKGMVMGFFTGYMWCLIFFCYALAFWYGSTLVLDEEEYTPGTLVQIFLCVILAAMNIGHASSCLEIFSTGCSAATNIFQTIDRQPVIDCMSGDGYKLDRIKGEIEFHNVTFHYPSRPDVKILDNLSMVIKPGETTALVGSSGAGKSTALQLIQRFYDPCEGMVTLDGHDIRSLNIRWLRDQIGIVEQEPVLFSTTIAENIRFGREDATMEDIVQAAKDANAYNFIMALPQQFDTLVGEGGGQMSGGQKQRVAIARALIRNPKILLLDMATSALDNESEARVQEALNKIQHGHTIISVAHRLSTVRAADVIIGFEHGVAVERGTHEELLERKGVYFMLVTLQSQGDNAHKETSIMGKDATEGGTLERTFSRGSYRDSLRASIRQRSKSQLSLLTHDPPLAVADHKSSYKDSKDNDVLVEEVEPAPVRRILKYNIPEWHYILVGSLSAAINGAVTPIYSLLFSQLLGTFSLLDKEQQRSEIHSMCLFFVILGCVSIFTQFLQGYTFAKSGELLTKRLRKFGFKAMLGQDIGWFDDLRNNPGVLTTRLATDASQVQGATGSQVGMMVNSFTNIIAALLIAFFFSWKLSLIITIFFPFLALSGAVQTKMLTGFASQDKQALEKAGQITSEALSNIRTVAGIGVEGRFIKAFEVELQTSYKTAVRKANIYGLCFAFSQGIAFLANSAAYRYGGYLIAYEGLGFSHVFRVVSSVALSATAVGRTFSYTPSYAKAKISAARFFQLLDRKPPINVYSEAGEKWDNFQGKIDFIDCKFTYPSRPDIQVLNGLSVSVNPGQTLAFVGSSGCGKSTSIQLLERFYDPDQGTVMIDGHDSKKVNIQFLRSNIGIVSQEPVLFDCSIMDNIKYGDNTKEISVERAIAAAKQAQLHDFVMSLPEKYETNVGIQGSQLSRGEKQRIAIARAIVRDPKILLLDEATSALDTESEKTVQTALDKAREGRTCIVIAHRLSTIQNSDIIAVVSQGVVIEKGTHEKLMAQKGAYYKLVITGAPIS
# RUN_DESCRIPTION: Inhibition of BSEP activity (transport of glycocholate) in rat hepatocytes
# ASSAY_SETUP: hepatocytes in suspension, probe glycocholate
REPORTED_PROPERTY: inhibition at 1 h, 10 μM

[[record]]
molecule = "OC(Cn1cncn1)(Cn1cncn1)c1ccc(F)cc1F [Fluconazole, fluconazole]"
tested_on = "BSEP (Rattus norvegicus)"
reported_property = "inhibition at 1 h, 10 μM"
value_observed = "< 50%"

[[record]]
molecule = "O=c1c(O)c(-c2ccc(O)c(O)c2)oc2cc(O)cc(O)c12 [Quercetin, quercetin]"
tested_on = "BSEP (Rattus norvegicus)"
reported_property = "inhibition at 1 h, 10 μM"
value_observed = "< 50%"

[[record]]
molecule = "Cc1c(O)cccc1C(=O)N[C@@H](CSc1ccccc1)[C@H](O)CN1C[C@H]2CCCC[C@H]2C[C@H]1C(=O)NC(C)(C)C [Nelfinavir, nelfinavir]"
tested_on = "BSEP (Rattus norvegicus)"
reported_property = "inhibition at 1 h, 10 μM"
value_observed = "> 50%"


Below: the item to evaluate.
Any idea what inhibition at 1 h, 10 μM came out for Cc1c(C)c2c(c(C)c1O)CCC(C)(COc1ccc(CC3SC(=O)NC3=O)cc1)O2 (stereo not shown) [Troglitazone, troglitazone] on BSEP (Rattus norvegicus)?
> 50%

====

IC50 by entry:
# TESTED_ON: BSEP (Mus musculus, UniProt Q9QY30)
# Sequence (Q9QY30 whole entry): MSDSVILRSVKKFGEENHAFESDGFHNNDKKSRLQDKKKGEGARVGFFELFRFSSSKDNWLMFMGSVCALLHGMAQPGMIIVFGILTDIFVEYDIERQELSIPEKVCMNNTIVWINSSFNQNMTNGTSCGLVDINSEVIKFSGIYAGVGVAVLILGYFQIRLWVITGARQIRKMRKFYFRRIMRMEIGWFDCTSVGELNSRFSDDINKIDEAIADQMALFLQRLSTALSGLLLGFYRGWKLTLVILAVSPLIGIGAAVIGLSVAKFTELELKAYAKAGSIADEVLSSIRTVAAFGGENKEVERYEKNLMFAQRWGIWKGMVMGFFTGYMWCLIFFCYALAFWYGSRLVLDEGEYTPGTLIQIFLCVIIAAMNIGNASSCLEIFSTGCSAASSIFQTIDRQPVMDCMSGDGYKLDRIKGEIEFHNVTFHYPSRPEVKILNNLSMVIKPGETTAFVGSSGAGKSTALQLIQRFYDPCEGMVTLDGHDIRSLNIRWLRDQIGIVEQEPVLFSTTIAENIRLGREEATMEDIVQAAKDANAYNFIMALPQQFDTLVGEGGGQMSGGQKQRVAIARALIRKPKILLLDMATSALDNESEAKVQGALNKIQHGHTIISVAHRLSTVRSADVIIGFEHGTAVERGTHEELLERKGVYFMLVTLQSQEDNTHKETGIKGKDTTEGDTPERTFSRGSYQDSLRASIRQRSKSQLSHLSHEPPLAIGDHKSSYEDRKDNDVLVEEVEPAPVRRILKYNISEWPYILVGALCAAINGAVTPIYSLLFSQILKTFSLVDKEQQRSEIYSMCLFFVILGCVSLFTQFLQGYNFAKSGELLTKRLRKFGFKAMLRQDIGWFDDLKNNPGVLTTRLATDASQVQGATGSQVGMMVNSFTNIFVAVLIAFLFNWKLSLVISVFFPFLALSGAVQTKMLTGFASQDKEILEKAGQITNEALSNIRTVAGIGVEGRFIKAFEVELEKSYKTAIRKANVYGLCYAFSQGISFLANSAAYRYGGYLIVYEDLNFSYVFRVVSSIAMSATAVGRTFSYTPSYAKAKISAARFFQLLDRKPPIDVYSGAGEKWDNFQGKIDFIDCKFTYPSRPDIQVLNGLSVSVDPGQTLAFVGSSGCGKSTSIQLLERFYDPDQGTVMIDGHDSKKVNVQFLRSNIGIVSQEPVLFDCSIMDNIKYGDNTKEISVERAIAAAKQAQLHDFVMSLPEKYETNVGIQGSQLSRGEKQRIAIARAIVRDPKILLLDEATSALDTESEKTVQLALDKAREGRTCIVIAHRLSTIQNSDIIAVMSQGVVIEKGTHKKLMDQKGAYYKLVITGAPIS
# RUN_DESCRIPTION: IC50 for inhibition of BSEP activity in mouse hepatocytes
# Protocol: Kinetic parameters were calculated using standard Michaelis-Menten kinetics. IC50 values were determined using Prism software (La Jolla, Calif.) or median-effect equation. [Chou et al., Theoretical basis, experimental design, and computerized simulation of synergism and antagonism in Drug Combination Studies. Pharmacological Reviews 58, 621, 2006]

Known results for compounds:
[[record]]
compound = "CO[C@H]1/C=C/O[C@@]2(C)Oc3c(C)c(O)c4c(O)c(c(/C=N/N5CCN(C)CC5)c(O)c4c3C2=O)NC(=O)/C(C)=C\\C=C\\[C@H](C)[C@H](O)[C@@H](C)[C@@H](O)[C@@H](C)[C@H](OC(C)=O)[C@@H]1C [Rifampicin]"
reported_property = "IC50"
value_observed = "> 10 µM"

[[record]]
compound = "Cc1c(C)c2c(c(C)c1O)CCC(C)(COc1ccc(CC3SC(=O)NC3=O)cc1)O2 (stereo not drawn) [Troglitazone, troglitazone]"
reported_property = "IC50"
value_observed = "> 10 µM"


Any idea what IC50 came out for CC(=O)N1CCN(c2ccc(OCC3COC(Cn4ccnc4)(c4ccc(Cl)cc4Cl)O3)cc2)CC1 (stereo not drawn) [Ketoconazole, ketoconazole] on BSEP (Mus musculus, UniProt Q9QY30)?
> 10 µM

====

# TESTED_ON: BSEP (Mus musculus, UniProt Q9QY30)
# RUN_DESCRIPTION: Inhibition of BSEP activity (transport of taurocholate) in mouse hepatocytes
REPORTED_PROPERTY: inhibition at 1 h, 10 μM

Any idea what inhibition at 1 h, 10 μM came out for "S=P(N1CC1)(N1CC1)N1CC1" on BSEP (Mus musculus, UniProt Q9QY30)?
< 50%
